test system: OVCAR-4 ovarian; experiment: NCI tumour cell line growth inhibition, 48 h
Give measured TGI for each item. Keep answers brief.

Lookup: TGI / OVCAR-4 ovarian / `Cc1c(-c2ccccc2)nn2cc(-c3ccccc3)nnc12`
> 100 µM

Could you do the same for COc1cc2c(cc1OC)C(Sc1ccc(SC)cc1)c1c(nc(N)c(C#N)c1N)O2 (stereo unspecified) , please?
3.27 µM

Could you do the same for `O=c1sc2c(s1)-c1sc(=O)sc1SS2` , please?
> 100 µM

Could you do the same for `S=c1nc(COc2ccc(Cl)cc2Cl)[nH][nH]1` , please?
> 100 µM

Could you do the same for C=CC(OC(C)=O)c1ccc(OC(=O)C(C)C)c(OC)c1 (stereo unspecified) , please?
16.2 µM

Could you do the same for CCCC(C)n1c(C)nc2c1C(=O)c1ccccc1C2=O (stereo unspecified) , please?
> 100 µM

====

tested on: NCI-H460 lung; assay: NCI tumour cell line growth inhibition, 48 h
Give measured TGI for each item. Keep answers brief.
Answer with a number only, understood to be in µM.

Lookup: TGI / NCI-H460 lung / `CCCCCCCCCCCCCCCCNCCCN(C)CCCN`
34.1

Could you do the same for `COc1ccc(-c2ccc(-c3ccc(C(=N)N)nc3)s2)cc1Cl` , please?
3.36

Could you do the same for `O=[N+]([O-])c1ccc(N/N=C/CC(O)(C(F)(F)F)C(F)(F)F)c([N+](=O)[O-])c1` , please?
8.35

Could you do the same for `CN(Cc1cccc(F)c1)c1ccc(CO)c(Cl)c1` , please?
13.5

====

# GI50 measurements, system: NCI-H460 lung

What value of GI50 has been reported for the following compound? `CC(=O)c1c(CN(C)c2ccccc2)n([O-])c2ccccc2[n+]1=O`
33.6 µM

Could you do the same for `O=C(CN1CCN(c2cc3c(cc2F)c(=O)c(C(=O)O)cn3C2CC2)CC1)Nc1nc(-c2ccc(Cl)cc2)cs1` , please?
3.03 µM

Could you do the same for COc1cc2c(cc1OC)C(Sc1ccc(SC)cc1)c1c(nc(N)c(C#N)c1N)O2 (stereo not given) , please?
2.08 µM

Could you do the same for `CCCCCCNC(=O)Oc1ccc(/C(=C(/C)Cc2ccc(OC)cc2)c2ccc(OCCCN(C)C)cc2)cc1` , please?
14.1 µM

Could you do the same for `O=C(O)c1cn(C2CC2)c2cc(N3CCN(C(=O)Nc4nc(-c5ccccc5)cs4)CC3)c(F)cc2c1=O` , please?
0.445 µM

Could you do the same for `Cc1ccc(-c2c3c(nn2-c2ccc(S(N)(=O)=O)cc2)-c2ccccc2C3)cc1` , please?
19.1 µM

Could you do the same for `COc1ccccc1C1=C(Nc2ccccc2)C(=O)NC1=O` , please?
> 25 µM

Could you do the same for CCC(c1ccc(OC)cc1)C(CC)c1ccc(O)c(CN2CCN(C)CC2)c1 (stereo not given) , please?
3.04 µM

Could you do the same for `Oc1ccc(O)c(-c2cc(-c3ccc(Cl)cc3)nn2-c2ccccc2)c1` , please?
3.77 µM

Could you do the same for `FC(F)(F)c1ccc(-c2cnc(-n3cc(COCCN4CCCCC4)nn3)nc2NC2CCCCCC2)cc1` , please?
4.57 µM

====

Give measured GI50 for each item. Keep answers brief.
tested on: A549 NSCLC; assay: NCI tumour cell line growth inhibition, 48 h

Lookup: GI50 / A549 NSCLC / `CCN(Cc1ccc(F)cc1)c1ccc(CO)c(C)c1`
17.1 µM

Could you do the same for `COc1cccc(-c2nn(-c3ccccc3)cc2-c2ccnc(NCCNC(=O)Nc3cccc(C(F)(F)F)c3)c2)c1` , please?
3.38 µM

Could you do the same for `Cc1cc2cc3ccc(N(C)C)cc3nc2cc1N` , please?
0.431 µM

Could you do the same for CCC(c1ccc(OC)cc1)C(CC)c1ccc(O)c(CN2CCN(C)CC2)c1 (stereo unspecified) , please?
8.26 µM

Could you do the same for `COc1ccccc1C1=C(Nc2ccccc2)C(=O)NC1=O` , please?
> 25 µM

Could you do the same for COc1cccc(-c2ccc3c(c2)C2CCN(Cc4ccccc4)C3C2)c1 (stereo unspecified) , please?
7.72 µM

Could you do the same for `Oc1ccc(O)c(-c2cc(-c3ccc(Cl)cc3)nn2-c2ccccc2)c1` , please?
7.56 µM

Could you do the same for COc1cc2c(cc1OC)C(Sc1ccc(SC)cc1)c1c(nc(N)c(C#N)c1N)O2 (stereo unspecified) , please?
2.05 µM

Could you do the same for COc1ccc(/C=c2\sc3n(c2=O)C2C(NN=3)N(C)C(=O)N2C)cc1 (stereo unspecified) , please?
1.35 µM

Could you do the same for `Nc1cc(O)ccc1N=Nc1ccc(-c2nc3ccccc3[nH]2)cc1` , please?
> 100 µM

Could you do the same for N#Cc1c(Br)n(C2OC(CO)C(O)C2O)c2ncnc(N)c12 (stereo unspecified) , please?
1.13 µM

The origin of these recorded values is PubChem BioAssay (NCI).
